observedProperty: melting point

Field request: melting point | item: Fc1ccc(-c2ncc(-c3ccc(OCc4ncc(C(F)(F)F)cc4F)cc3)[nH]2)cn1 [Example 344]
174 to 177 °C

Cool, now COc1cc(OCc2ncc(Br)cc2F)ccc1-c1[nH]c(-c2ccc(Cl)nc2)nc1Cl [Example 251]
189 to 191 °C

Please do the same for COc1cc(OCc2ccc(S(=O)(=O)OC)cn2)ccc1-c1c[nH]c(-c2ccc(Cl)nc2)n1 [Example 44] as well.
232 to 235 °C (dec.)

Also, COc1cc(O[C@@H](C)c2ccc(C(F)(F)F)cc2)ccc1-c1[nH]c(-c2ccc(F)nc2)nc1Cl [Example 288] please.
137 to 139 °C

Similarly, COc1cc(OCc2ncc(C(F)(F)F)cc2F)ccc1-c1[nH]c(C2CCC(F)(F)C2)nc1Cl (centres unmarked) [Example 346] ?
147 to 149 °C

And the next one, COc1cc(OCc2ncccc2C(F)(F)F)ccc1-c1nc(-c2ccc(Cl)nc2)[nH]c1Cl [Example 221] ?
182 to 184 °C

Another compound to look at: Fc1cc(C(F)(F)F)cnc1COc1ccc(-c2cnc(C3CC(F)(F)C3)[nH]2)cc1 [Example 393]
191 to 196 °C

Follow-up entry: COc1cc(OCc2ccc(C(F)(F)F)cn2)ccc1-c1c[nH]c(-c2ccc(O)nc2)n1 [Example 18]
> 250 °C
